The measurements presented in this section are drawn from paper PMC8221158.

- System: normal MRC-5 cells
- protocolNotes: MTT assay, normal cells (cytotoxic selectivity)
- Assay type: cell-based
- protocolConditions: Homo sapiens, MRC5, 72 h treatment, n = 3, read-out: IC50 (µM ± SD) MRC-5
Form field: IC50 (one value per entry).
Provide only the numeric value, understood in µM.

Solved cases below.
COc1cc(C(=O)Nc2c(C#N)c3n(c2C(=O)Nc2ccc(Br)cc2)CCC3)cc(OC)c1OC [16e]; 5.26
COc1cc(C(=O)Nc2c(C#N)c3n(c2C(=O)Nc2ccc(Cl)cc2)CCC3)cc(OC)c1OC [16d]; 8.1
COc1ccc(NC(=O)c2c(N=Cc3cc(OC)c(OC)c(OC)c3)c(C#N)c3n2CCC3)cc1 [15c]; 1.98
COc1cc(C=Nc2c(C#N)c3n(c2C(=O)Nc2ccc(Br)cc2)CCC3)cc(OC)c1OC [15e]; 17.1
COc1cc(C(=O)Nc2c(C#N)c3n(c2C(=O)Nc2ccc(C)cc2)CCC3)cc(OC)c1OC [16b]; 5.85

Data request: State recorded IC50 with normal MRC-5 cells, entry COc1cc(C=Nc2c(C#N)c3n(c2C(=O)Nc2ccc(C)cc2)CCC3)cc(OC)c1OC [15b] , no comment.
Data returned: 3.33

Data request: Return reported IC50 for target or system normal MRC-5 cells, item CS(=O)(=O)CCNCc1ccc(-c2ccc3ncnc(Nc4ccc(OCc5cccc(F)c5)c(Cl)c4)c3c2)o1 [Lapatinib, reference compound] .
Data returned: 13.7

Data request: Give measured IC50 for COc1cc(C=Nc2c(C#N)c3n(c2C(=O)Nc2ccccc2)CCCC3)cc(OC)c1OC (normal MRC-5 cells).
Data returned: 1.52

----------
- System: A2780
- protocolNotes: MTT cell proliferation assay
- Format: cell-based, human
- protocolConditions: IC50 MRC-5 / IC50 A2780
Mark yes (1) only for Selectivity index A2780 values smaller than 6; exact matches and larger values are no (0).

Record excerpt, results attached:
COc1cc(C=Nc2c(C#N)c3n(c2C(=O)Nc2ccc(Cl)cc2)CCC3)cc(OC)c1OC [15d]; no (0)
COc1ccc(NC(=O)c2c(N=Cc3cc(OC)c(OC)c(OC)c3)c(C#N)c3n2CCC3)cc1 [15c]; no (0)
COc1cc(C(=O)Nc2c(C#N)c3n(c2C(=O)Nc2ccc(Cl)cc2)CCC3)cc(OC)c1OC [16d]; no (0)

# evaluate next
Data request: Below 6 on Selectivity index A2780? Entry CS(=O)(=O)CCNCc1ccc(-c2ccc3ncnc(Nc4ccc(OCc5cccc(F)c5)c(Cl)c4)c3c2)o1 [Lapatinib, reference compound]
Data returned: yes (1)

----------
- System: A2780
- protocolNotes: MTT cell proliferation assay
- Format: cell-based, human
- protocolConditions: IC50 MRC-5 / IC50 A2780
quantityMeasured: Selectivity index A2780
Respond using a number only.

For orientation, consider the following solved cases.
COc1cc(C=Nc2c(C#N)c3n(c2C(=O)Nc2ccccc2)CCCC3)cc(OC)c1OC; 1.62
COc1ccc(NC(=O)c2c(NC(=O)c3cc(OC)c(OC)c(OC)c3)c(C#N)c3n2CCC3)cc1 [16c]; 4.62
COc1cc(C(=O)Nc2c(C#N)c3n(c2C(=O)Nc2ccc(Br)cc2)CCC3)cc(OC)c1OC [16e]; 5.75

Data request: Tell me Selectivity index A2780 reported for COc1cc(C=Nc2c(C#N)c3n(c2C(=O)Nc2ccccc2)CCC3)cc(OC)c1OC [15a]
Data returned: 0.07
